- target: Pry1 (Saccharomyces cerevisiae, UniProt P47032)
- Construct: construct not described here (full length secreted protein or CAP domain)
- Sequence (P47032 20-299): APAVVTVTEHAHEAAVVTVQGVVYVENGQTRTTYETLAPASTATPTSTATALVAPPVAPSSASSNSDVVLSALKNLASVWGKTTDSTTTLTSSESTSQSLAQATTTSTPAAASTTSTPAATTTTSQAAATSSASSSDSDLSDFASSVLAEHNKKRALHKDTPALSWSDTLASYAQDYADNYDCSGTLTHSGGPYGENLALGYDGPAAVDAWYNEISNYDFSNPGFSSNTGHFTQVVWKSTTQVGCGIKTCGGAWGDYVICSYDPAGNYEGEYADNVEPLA
- protocol summary: radioligand saturation binding, Q-sepharose adsorption
measured parameter: pKd
Entry type: numeric. Quantity: pKd, the -log10 of concentration in molar units.

Test item CC(C)CCC[C@@H](C)[C@H]1CC[C@H]2[C@@H]3CC=C4C[C@@H](O)CC[C@]4(C)[C@H]3CC[C@]12C ; Pry1 (Saccharomyces cerevisiae, UniProt P47032); reported pKd was 5.72
